# TARGET UNDER TEST: Non-receptor tyrosine-protein kinase TYK2 (Homo sapiens) (UniProt P29597);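 also: each value is a mean of the inhibition readings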
# Sequence (P29597 whole entry): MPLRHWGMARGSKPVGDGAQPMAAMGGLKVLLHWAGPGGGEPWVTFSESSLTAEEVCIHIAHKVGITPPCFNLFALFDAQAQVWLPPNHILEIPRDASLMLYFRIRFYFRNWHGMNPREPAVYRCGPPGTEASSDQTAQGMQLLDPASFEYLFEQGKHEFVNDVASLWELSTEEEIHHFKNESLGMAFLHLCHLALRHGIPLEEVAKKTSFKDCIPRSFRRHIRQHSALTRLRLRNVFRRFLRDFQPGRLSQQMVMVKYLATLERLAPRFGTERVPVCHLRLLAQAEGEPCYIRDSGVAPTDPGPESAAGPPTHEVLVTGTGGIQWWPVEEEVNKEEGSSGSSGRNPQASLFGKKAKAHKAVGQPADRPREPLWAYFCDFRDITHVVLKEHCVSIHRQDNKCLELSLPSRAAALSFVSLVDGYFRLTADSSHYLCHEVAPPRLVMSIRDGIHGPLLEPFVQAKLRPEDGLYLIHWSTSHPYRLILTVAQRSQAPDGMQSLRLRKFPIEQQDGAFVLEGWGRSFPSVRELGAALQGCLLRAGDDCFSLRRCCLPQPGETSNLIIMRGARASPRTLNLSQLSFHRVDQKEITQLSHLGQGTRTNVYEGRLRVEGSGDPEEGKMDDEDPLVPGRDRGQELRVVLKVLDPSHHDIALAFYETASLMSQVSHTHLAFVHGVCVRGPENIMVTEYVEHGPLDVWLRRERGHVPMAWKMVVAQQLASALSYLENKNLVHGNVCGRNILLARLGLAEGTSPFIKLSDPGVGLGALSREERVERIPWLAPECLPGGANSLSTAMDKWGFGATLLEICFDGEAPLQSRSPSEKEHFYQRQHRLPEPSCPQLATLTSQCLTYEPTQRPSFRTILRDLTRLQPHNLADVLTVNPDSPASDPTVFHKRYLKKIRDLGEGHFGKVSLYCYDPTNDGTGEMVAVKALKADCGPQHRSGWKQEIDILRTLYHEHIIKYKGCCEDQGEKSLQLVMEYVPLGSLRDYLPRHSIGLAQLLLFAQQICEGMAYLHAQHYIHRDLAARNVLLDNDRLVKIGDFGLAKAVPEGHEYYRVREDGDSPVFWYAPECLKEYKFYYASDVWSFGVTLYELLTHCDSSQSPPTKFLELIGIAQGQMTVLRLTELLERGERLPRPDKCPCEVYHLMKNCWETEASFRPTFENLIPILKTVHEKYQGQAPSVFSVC
# MEASUREMENT SETUP: at 0.1 µM
READOUT LABEL: inhibition (%)

• COc1cccc(-n2ncc3c(N/N=C/c4ccc(C(=O)NCCN(C)C)cc4)ncnc32)c1 = -5.03
• CNC(=O)c1ncccc1Nc1nc(Nc2cc3c(cc2OC)CCCN3C(=O)CN(C)C)nc2[nH]ccc12 = -3.3
• COc1c(C(N)=O)cc(-c2ccc(Cl)cc2)cc1-c1ccc(S(N)(=O)=O)cc1 = -0.68
• Fc1cccc(COc2ccc(Nc3ncncc3C#Cc3ccccc3)cc2Cl)c1 = -4.7
• Fc1ccc(Nc2nccc(-c3c(-c4ccc(C(F)(F)F)cc4)nn4ncccc34)n2)cc1F = -3.95
• Cn1c(-c2nonc2N)nc2cnccc21 = -2.09
• CCS(=O)(=O)c1ccc(OC)c(Nc2ncc(-c3cccc(C(C)=O)c3)o2)c1 = -3.16
• NS(=O)(=O)c1ccc(N/N=C2\C(=O)Nc3cccc(CCc4ccncc4)c32)cc1 = -0.26
• Cc1cc(O)cc(C)c1/C=C/c1cncc(C(N)=O)c1 = -2.57

----------
Catalogue of inhibition values
# TARGET UNDER TEST: Tyrosine-protein kinase BTK (Homo sapiens) (UniProt Q06187);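 also: values are averaged percent inhibition of BTK enzyme activity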
# Sequence (Q06187 whole entry): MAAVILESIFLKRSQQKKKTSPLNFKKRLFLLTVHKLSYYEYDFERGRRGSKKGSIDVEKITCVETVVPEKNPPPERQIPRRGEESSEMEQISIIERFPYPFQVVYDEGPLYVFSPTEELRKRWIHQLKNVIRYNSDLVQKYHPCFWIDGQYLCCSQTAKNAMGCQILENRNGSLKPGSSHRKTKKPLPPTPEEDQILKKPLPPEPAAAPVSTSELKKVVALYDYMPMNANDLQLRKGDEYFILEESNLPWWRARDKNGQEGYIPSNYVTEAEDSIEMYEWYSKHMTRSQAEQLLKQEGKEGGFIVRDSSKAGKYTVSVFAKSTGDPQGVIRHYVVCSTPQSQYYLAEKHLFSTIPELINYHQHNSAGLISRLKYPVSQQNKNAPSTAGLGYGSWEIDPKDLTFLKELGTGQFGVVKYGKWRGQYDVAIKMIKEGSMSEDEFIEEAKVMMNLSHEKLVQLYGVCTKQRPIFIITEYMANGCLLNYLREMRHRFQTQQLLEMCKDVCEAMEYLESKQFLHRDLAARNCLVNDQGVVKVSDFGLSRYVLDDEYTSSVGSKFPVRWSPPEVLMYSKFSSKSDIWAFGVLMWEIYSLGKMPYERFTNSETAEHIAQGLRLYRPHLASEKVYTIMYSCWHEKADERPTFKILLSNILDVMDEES
# MEASUREMENT SETUP: at 0.1 µM
READOUT LABEL: inhibition (%)

- COC(=O)Nc1nc2ccc(Oc3ccc(NC(=O)Nc4cc(C(F)(F)F)ccc4F)cc3)cc2s1: -0.69
- CS(=O)(=O)CCNCc1ccc(-c2ccc3ncnc(Nc4ccc(OCc5ccccc5)cc4)c3c2)o1: 0.51
- NS(=O)(=O)c1ccc(N/N=C2\C(=O)Nc3ccc(C(=O)NCc4ccncc4)cc32)cc1: 0.85
- COc1cc(N2CCN(C(C)C)CC2)ccc1Nc1nc(Nc2cccc(F)c2C(=O)O)c2cc[nH]c2n1: -0.37
- COc1ccc(Nc2ncc(-c3ccccc3)o2)cc1OC: 0.8
- COc1cccc(Nc2nccc(-c3cnn4ncccc34)n2)c1: 0.35
- CCS(=O)(=O)c1ccc(OC)c(Nc2ncc(-c3cccc(F)c3)o2)c1: 3.65
- c1cnn2ncc(-c3ccnc(NCCCN4CCOCC4)n3)c2c1: -1.19

----------
# TARGET UNDER TEST: Serine/threonine-protein kinase SIK1 (Homo sapiens);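 also: mean inhibition value from the GSK PKIS profiling set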
# MEASUREMENT SETUP: at 1 µM
Class y: inhibition at least 8%. Class n: inhibition below 8%.

• CS(=O)(=O)CCNCc1ccc(-c2ccc3ncnc(Nc4ccc(OCc5cccc(C(F)(F)F)c5)cc4)c3c2)o1 = n
• O=C(O[C@H]1CN[C@H](C#Cc2cc3ncnc(Nc4ccc(OCc5cccc(F)c5)c(Cl)c4)c3s2)C1)N1CCOCC1 = y
• CC1(C)CC(n2cnc(-c3ccc(F)cc3)c2-c2ccnc(N)n2)CC(C)(C)N1 = n
• CNC(=O)c1cncc(/C=C/c2ccccc2C)c1 = y
• O=C(O[C@H]1CN[C@H](C#Cc2cc3ncnc(Nc4ccc5c(ccn5Cc5cc(F)ccc5F)c4)c3s2)C1)N1CCOCC1 = n
• CNC(=O)c1sc(-n2cnc3cc(OC)c(OC)cc32)cc1OCc1ccccc1C(F)(F)F = y
• CNC(=O)c1ncccc1Nc1nc(Nc2cc3c(cc2OC)CCCN3C(=O)CN(C)C)nc2[nH]ccc12 = n
• Cc1cc(O)cc(C)c1/C=C/c1cncc(C(N)=O)c1 = y
